Molecular target: the molecule itself
Assay: SPR (BIAcore 2000), peptide coated on CM5 chip, same peptide injected at 12.5-100 µM
Value type: pKd
Note on pKd: it is the negative log10 of concentration, concentration in mol/L.

Please give the measured pKd for this protein: SSMRTSPRSSTLAVRVFLAPWKK (Synthetic peptide, juxta-membrane 23 amino acids of the mouse CD31 ectodomain; In the SPR assay it was both coated on the CM5 chip and injected as analyte) [mouse CD31 peptide 551-574] 4.75
